Tested on: CCRIS mutagenicity, Ames/micronucleus/aberration tests
assayText: CCRIS mutagenicity studies
conditionsUsed: Test System: MOUSE LYMPHOMA; Strain/Indicator: L5178Y (TK+/TK-); Metabolic Activation: NONE; Method: SUSPENSION/PLATE
Activity calls are given as the source filed them. No rule for the calls is given here.
Respond using exactly one of the listed classes: True (active), False (inactive)

[[record]]
molecule = "Nc1ccc2c(c1)C(=O)c1ccccc1C2=O"
classlabel = "True"


Request: For "Nc1ccc(S(N)(=O)=O)cc1" , what call appears in the results of this test?
Response: False

Request: For "ClC=C(Cl)Cl" , what call appears in the results of this test?
Response: False

Request: For "O=c1[nH]c(=O)n([C@H]2C[C@H](O)[C@@H](CO)O2)cc1/C=C/Br" , what call appears in the results of this test?
Response: True

Request: For "Clc1nc2ccccc2nc1Cl" , what call appears in the results of this test?
Response: True

Request: For "CC/C=C/C=C/C=C/C=C/C=C/OC[C@@H](O)CO" , what call appears in the results of this test?
Response: True

Request: For "CC(=O)c1ccc(Cl)c(Cl)c1Cl" , what call appears in the results of this test?
Response: False

Request: For "F" , what call appears in the results of this test?
Response: True

Request: For "Nc1nc(-c2ccccc2)c(Br)c(=O)[nH]1" , what call appears in the results of this test?
Response: False

Request: For "NC(=Nc1ccccc1)Nc1ccccc1" , what call appears in the results of this test?
Response: False

Request: For "O=S(=O)(c1ccc(O)cc1)c1ccc(O)cc1" , what call appears in the results of this test?
Response: False

Request: For "c1cc2ccc3cccc4ccc(c1)c2c34" , what call appears in the results of this test?
Response: False

Values from PubChem BioAssay AID1259407
